System: streptozotocin-induced diabetic rats
test-description: Sucrose-challenged streptozotocin-induced diabetic rats (STZ-S), antihyperglycemic activity
Type: in vivo, rat (Sprague Dawley)
reported-conditions: 100 mg/kg oral; sucrose load 2.5 g/kg; AUC vs control; 24 h
readout: % Fall in blood glucose levels STZ-S 24 h (%)
Answers are plain numbers, in %.

Worked examples follow.
| compound | val |
| --- | --- |
| COc1ccc(/C=C/C(=O)c2ccccc2OCC(O)CNC(C)C)cc1 (stereo not shown) | 2.77 |
| O=C1NC(=O)/C(=C\c2ccc(OCCCCCOc3cccc(C(=O)/C=C/c4ccc5c(c4)OCO5)c3)cc2)S1 | 7.18 |

Then there is this compound:
Returns the measured % Fall in blood glucose levels STZ-S 24 h for the input compound. Input: COc1ccc(/C=C/C(=O)c2ccc(OCC(O)CN3CCN(c4ccccc4)CC3)cc2)cc1OC (stereo not shown)
20.3

====

Could you please report measured melting point for the items listed next?

Worked examples follow.
| compound | melting point |
| --- | --- |
| COc1ccc(/C=C/C(=O)c2ccc(OCC(O)CN3CCN(c4ccccc4OC)CC3)cc2)cc1 (centres unmarked) | 97 to 98 °C |
| COc1ccc(/C=C/C(=O)c2ccc(OCC(O)CNC(C)(C)C)cc2)cc1OC (centres unmarked) | 62 to 64 °C |
| COc1ccc(/C=C/C(=O)c2cccc(OCC(O)CNC(C)(C)C)c2)cc1 (centres unmarked) | 83 to 84 °C |
| CCCCNCC(O)COc1ccccc1C(=O)/C=C/c1ccc(OC)cc1 (centres unmarked) | 106 to 107 °C |
| COc1ccc(/C=C/C(=O)c2cccc(OCC(O)CNC(C)C)c2)cc1 (centres unmarked) | 102 to 103 °C |

Record melting point per entry; entries follow.
1. COc1ccc(/C=C/C(=O)c2cccc(OCC(O)CN3CCN(c4ccccc4)CC3)c2)cc1 (centres unmarked)
2. COc1ccc(/C=C/C(=O)c2ccc(OCC(O)CNCC(C)C)cc2)cc1 (centres unmarked)

1. 153 to 154 °C
2. 76 to 77 °C

Returns the measured melting point for the input compound. Input: COc1ccc(/C=C/C(=O)c2ccc(OCC(O)CNC(C)(C)C)cc2)cc1 (centres unmarked)
70 to 71 °C

====

Tested on: triton WR-1339 induced hyperlipidemic rats
test-description: Triton model, antidyslipidemic activity
Assay type: in vivo, rat (Charles foster)
reported-conditions: Rattus norvegicus; 100 mg/kg oral; plasma phospholipid after 18 h; read-out: % Fall in lipid levels (Triton model) PL
readout: inhibition in vivo at 100 mg/kg
Could you give the number and then its unit, please?

| compound | val |
| --- | --- |
| COc1ccc(/C=C/C(=O)c2cccc(OCC(O)CN3CCN(c4ccccc4)CC3)c2)cc1 (stereo not shown) | 26% |
| COc1ccc(/C=C/C(=O)c2cccc(OCC(O)CNC(C)(C)C)c2)cc1 (stereo not shown) | 25% |
| COc1ccc(/C=C/C(=O)c2ccc(OCC(O)CNC(C)(C)C)cc2)cc1OC (stereo not shown) | 22% |

Record inhibition in vivo at 100 mg/kg per entry; entries follow.
1. CCCCNCC(O)COc1ccc(C(=O)/C=C/c2ccc(OC)cc2)cc1 (stereo not shown)
2. CCCCNCC(O)COc1ccccc1C(=O)/C=C/c1ccc(OC)cc1 (stereo not shown)
3. COc1ccc(/C=C/C(=O)c2ccc(OCC(O)CN3CCN(c4ccccc4)CC3)cc2)cc1 (stereo not shown)
4. COc1ccc(/C=C/C(=O)c2ccc(OCC(O)CN3CCN(c4ccccc4OC)CC3)cc2)cc1 (stereo not shown)

1. 22%
2. 3%
3. 11%
4. 15%

Record inhibition in vivo at 100 mg/kg per entry; entries follow.
1. CC(C)CNCC(O)COc1ccc(C(=O)/C=C/c2ccc3c(c2)OCO3)cc1 (stereo not shown)
2. COc1ccc(/C=C/C(=O)c2ccc(OCC(O)CNC(C)C)cc2)cc1 (stereo not shown)
3. CC(C)(C)NCC(O)COc1ccc(C(=O)/C=C/c2ccc3c(c2)OCO3)cc1 (stereo not shown)
4. COc1ccc(/C=C/C(=O)c2ccc(OCC(O)CNC(C)(C)C)cc2)cc1 (stereo not shown)
5. COc1ccc(/C=C/C(=O)c2cccc(OCC(O)CNC(C)C)c2)cc1 (stereo not shown)

1: 9%; 2: 12%; 3: 20%; 4: 11%; 5: 27%

Record inhibition in vivo at 100 mg/kg per entry; entries follow.
1. O=C(/C=C/c1ccc2c(c1)OCO2)c1ccc(OCC(O)CN2CCN(c3ccccc3)CC2)cc1 (stereo not shown)
2. COc1ccc(/C=C/C(=O)c2ccc(OCC(O)CNCC(C)C)cc2)cc1 (stereo not shown)
3. COc1ccc(/C=C/C(=O)c2ccc(OCC(O)CN3CCN(c4ccccc4)CC3)cc2)cc1OC (stereo not shown)
4. O=C1NC(=O)/C(=C\c2ccc(OCCCCCOc3cccc(C(=O)/C=C/c4ccc5c(c4)OCO5)c3)cc2)S1

1: 21%; 2: 14%; 3: 8%; 4: 20%

====

Test system: streptozotocin-induced diabetic rats
test-description: Sucrose-challenged streptozotocin-induced diabetic rats (STZ-S), antihyperglycemic activity
Format: in vivo, rat (Sprague Dawley)
reported-conditions: 100 mg/kg oral; sucrose load 2.5 g/kg; AUC vs control; 24 h
Description: Male albino rats of Sprague Dawley strain of body weight […] were selected for this study. Streptozotocin (Sigma, USA) was dissolved in 100 mM citrate buffer pH 4.5 and calculated amount of the fresh solution was injected to overnight fasted rats (45 mg/kg) intraperitoneally. […] Comparing the AUC of experimental and control groups determined the percent antihyperglycemic activity. […]
Could you please report measured % Fall in blood glucose levels STZ-S 24 h for the items listed next?
Numbers only, in %.

| molecule | measure-unit | val |
| --- | --- | --- |
| CC(C)CNCC(O)COc1ccc(C(=O)/C=C/c2ccc3c(c2)OCO3)cc1 (stereo not shown) [Compound 35] | % | 11.6 |

Returns the measured % Fall in blood glucose levels STZ-S 24 h for the input molecule. Input: COc1ccc(/C=C/C(=O)c2cccc(OCC(O)CNC(C)(C)C)c2)cc1 (stereo not shown) [Compound 30]
11.3

====

Could you please report measured melting point for the items listed next?

Worked examples follow.
| compound | val |
| --- | --- |
| CC(C)CNCC(O)COc1ccc(C(=O)/C=C/c2ccc3c(c2)OCO3)cc1 (centres unmarked) [Compound 35] | 122 to 123 °C |
| CNCC(O)COc1ccc(C(=O)/C=C/c2ccc(OC)cc2)cc1 (centres unmarked) [Compound 26] | 114 to 115 °C |
| CCCCNCC(O)COc1ccc(C(=O)/C=C/c2ccc(OC)cc2)cc1 (centres unmarked) [Compound 27] | 163 to 164 °C |

Record melting point per entry; entries follow.
1. COc1ccc(/C=C/C(=O)c2ccc(OCC(O)CNCCc3ccc(OC)c(OC)c3)cc2)cc1 (centres unmarked) [Compound 25]
2. COc1ccc(/C=C/C(=O)c2ccc(OCC(O)CN3CCN(c4ccccc4)CC3)cc2)cc1 (centres unmarked) [Compound 20]
3. COc1ccc(/C=C/C(=O)c2ccc(OCC(O)CNC(C)C)cc2)cc1 (centres unmarked) [Compound 23]
4. O=C(/C=C/c1ccc2c(c1)OCO2)c1ccc(OCC(O)CN2CCN(c3ccccc3)CC2)cc1 (centres unmarked) [Compound 33]
5. COc1ccc(/C=C/C(=O)c2ccccc2OCC(O)CNC(C)C)cc1 (centres unmarked) [Compound 32]

1. 120 to 121 °C
2. 165 to 167 °C
3. 105 to 106 °C
4. 153 to 154 °C
5. 88 to 89 °C

====

System: streptozotocin-induced diabetic rats
test-description: Sucrose-challenged streptozotocin-induced diabetic rats (STZ-S), antihyperglycemic activity
Assay type: in vivo, rat (Sprague Dawley)
reported-conditions: 100 mg/kg oral; sucrose load 2.5 g/kg; AUC vs control; 24 h
Protocol: Male albino rats of Sprague Dawley strain of body weight […] were selected for this study. Streptozotocin (Sigma, USA) was dissolved in 100 mM citrate buffer pH 4.5 and calculated amount of the fresh solution was injected to overnight fasted rats (45 mg/kg) intraperitoneally. […] Comparing the AUC of experimental and control groups determined the percent antihyperglycemic activity. […]
readout: % Fall in blood glucose levels STZ-S 24 h

| molecule | study-system | val |
| --- | --- | --- |
| COc1ccc(/C=C/C(=O)c2ccc(OCC(O)CNC(C)(C)C)cc2)cc1 (stereo not drawn) [Compound 22] | streptozotocin-induced diabetic rats | NIL |
| COc1ccc(/C=C/C(=O)c2ccc(OCC(O)CNC(C)(C)C)cc2)cc1OC (stereo not drawn) [Compound 19] | streptozotocin-induced diabetic rats | NIL |
| CCCCNCC(O)COc1ccc(C(=O)/C=C/c2ccc(OC)cc2)cc1 (stereo not drawn) [Compound 27] | streptozotocin-induced diabetic rats | NIL |

====

Could you please report measured inhibition in vivo at 100 mg/kg for the items listed next?
Test system: triton WR-1339 induced hyperlipidemic rats
test-description: Triton model, antidyslipidemic activity
Type: in vivo, rat (Charles foster)
reported-conditions: Rattus norvegicus; 100 mg/kg oral; plasma phospholipid after 18 h; read-out: % Fall in lipid levels (Triton model) PL
Give bare numbers, in %.

| compound | val |
| --- | --- |
| COc1ccc(/C=C/C(=O)c2ccccc2OCC(O)CNC(C)C)cc1 (stereo not drawn) [Compound 32] | 15 |
| CNCC(O)COc1ccc(C(=O)/C=C/c2ccc(OC)cc2)cc1 (stereo not drawn) [Compound 26] | 28 |

Then there is this compound:
Returns the measured inhibition in vivo at 100 mg/kg for the input compound. Input: COc1ccc(/C=C/C(=O)c2ccc(OCC(O)CNCCc3ccc(OC)c(OC)c3)cc2)cc1 (stereo not drawn) [Compound 25]
10

// provenance: patent US7807712B2
